target: IKZF2 (Helios) (Homo sapiens, UniProt Q96SW2+Q9UKS7); experiment: Prolabel quantification of IKZF2 protein levels in 293GT cells; assay type: cell-based; settings: 24 h, Pro-label assay, 293GT cells, 10 μM, read-out: IKZF2 % protein reduction at 10 μM, 24 h
Sequence (Q9UKS7 whole entry): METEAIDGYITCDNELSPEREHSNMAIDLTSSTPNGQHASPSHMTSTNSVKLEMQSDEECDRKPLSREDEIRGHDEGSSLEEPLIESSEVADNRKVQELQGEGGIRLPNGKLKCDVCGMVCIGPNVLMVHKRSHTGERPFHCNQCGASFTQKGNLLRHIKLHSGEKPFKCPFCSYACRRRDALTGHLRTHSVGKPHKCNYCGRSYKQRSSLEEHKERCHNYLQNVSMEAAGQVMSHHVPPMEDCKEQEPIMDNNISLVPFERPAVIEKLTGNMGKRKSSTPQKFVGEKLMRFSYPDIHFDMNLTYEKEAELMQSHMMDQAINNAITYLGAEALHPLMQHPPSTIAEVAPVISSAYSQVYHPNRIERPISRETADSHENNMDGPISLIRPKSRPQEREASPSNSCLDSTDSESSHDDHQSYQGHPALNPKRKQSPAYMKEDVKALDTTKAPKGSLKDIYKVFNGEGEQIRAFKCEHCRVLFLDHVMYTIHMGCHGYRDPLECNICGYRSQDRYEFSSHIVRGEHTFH
Sequence (Q96SW2 whole entry): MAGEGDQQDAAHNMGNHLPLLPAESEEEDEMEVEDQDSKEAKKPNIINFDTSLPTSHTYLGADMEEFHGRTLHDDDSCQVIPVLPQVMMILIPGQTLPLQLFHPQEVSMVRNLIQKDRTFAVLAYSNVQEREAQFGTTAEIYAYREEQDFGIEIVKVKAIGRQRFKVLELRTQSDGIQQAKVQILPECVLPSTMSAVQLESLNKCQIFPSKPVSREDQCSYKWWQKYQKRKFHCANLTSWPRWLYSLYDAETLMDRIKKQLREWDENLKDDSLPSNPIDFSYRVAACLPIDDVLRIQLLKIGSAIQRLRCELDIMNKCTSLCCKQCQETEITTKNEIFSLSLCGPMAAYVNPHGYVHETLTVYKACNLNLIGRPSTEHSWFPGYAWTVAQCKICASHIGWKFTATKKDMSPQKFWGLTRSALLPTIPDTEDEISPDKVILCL
Sequence (Q16531 whole entry partner): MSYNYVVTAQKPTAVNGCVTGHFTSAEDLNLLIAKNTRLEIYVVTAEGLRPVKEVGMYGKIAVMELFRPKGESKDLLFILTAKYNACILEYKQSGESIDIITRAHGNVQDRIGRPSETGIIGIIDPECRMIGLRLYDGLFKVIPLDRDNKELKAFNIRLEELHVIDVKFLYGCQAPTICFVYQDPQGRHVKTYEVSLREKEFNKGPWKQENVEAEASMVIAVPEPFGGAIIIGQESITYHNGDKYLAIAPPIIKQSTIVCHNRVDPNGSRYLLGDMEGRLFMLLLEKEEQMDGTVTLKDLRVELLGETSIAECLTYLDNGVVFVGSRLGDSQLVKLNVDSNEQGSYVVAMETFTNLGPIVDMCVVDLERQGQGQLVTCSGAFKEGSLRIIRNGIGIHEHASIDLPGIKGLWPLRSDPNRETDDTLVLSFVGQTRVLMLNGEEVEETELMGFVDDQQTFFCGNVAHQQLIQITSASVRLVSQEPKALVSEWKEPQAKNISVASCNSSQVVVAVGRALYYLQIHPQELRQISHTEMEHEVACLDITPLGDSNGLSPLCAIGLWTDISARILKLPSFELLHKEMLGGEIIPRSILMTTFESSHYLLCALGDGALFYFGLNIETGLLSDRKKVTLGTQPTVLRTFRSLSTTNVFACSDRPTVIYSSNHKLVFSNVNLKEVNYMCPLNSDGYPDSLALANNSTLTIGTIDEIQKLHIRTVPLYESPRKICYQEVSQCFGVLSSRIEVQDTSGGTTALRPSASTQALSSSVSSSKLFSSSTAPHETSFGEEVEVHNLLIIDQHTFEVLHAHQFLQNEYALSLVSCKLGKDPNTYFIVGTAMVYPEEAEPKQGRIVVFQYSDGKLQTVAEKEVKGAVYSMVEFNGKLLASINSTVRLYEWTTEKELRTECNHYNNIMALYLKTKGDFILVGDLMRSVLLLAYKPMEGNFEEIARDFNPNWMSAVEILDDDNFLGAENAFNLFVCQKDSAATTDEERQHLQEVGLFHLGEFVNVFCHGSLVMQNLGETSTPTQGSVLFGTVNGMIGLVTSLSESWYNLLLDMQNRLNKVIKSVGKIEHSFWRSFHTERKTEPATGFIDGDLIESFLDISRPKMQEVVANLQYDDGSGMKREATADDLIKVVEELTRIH
quantity measured: IKZF2 % protein reduction at 10 µM (%)

>>> df
                                    compound  result_unit  numeric_readout
 0  O=C1CCC(N2Cc3cc(O[C@@H]4CCCC[C@@H]4O)ccc3C2=O)C(=O)N1 (relative stereo) [I-37]            %                0
 1  CC1(C)CCCN([C@@H]2CCC[C@H]2Oc2ccc3c(c2)CN(C2CCC(=O)NC2=O)C3=O)C1 (single isomer, unassigned) [I-169]            %                2
 2  O=C1CCC(N2Cc3cc(O[C@H]4CCCC[C@@H]4N4CC5(COC5)C4)ccc3C2=O)C(=O)N1 (stereo partly shown) [I-74]            %               58
 3  CC(C)CN[C@H]1CCC[C@@H]1Oc1ccc2c(c1)CN(C1CCC(=O)NC1=O)C2=O (stereo partly shown) [I-142]            %               83
 4  CC(C)CN[C@H]1CCCCC[C@@H]1Oc1ccc2c(c1)CN(C1CCC(=O)NC1=O)C2=O (stereo partly shown) [I-61]            %               84
 5  CCCN(CCC)[C@H]1CCCC[C@@H]1Oc1ccc2c(c1)CN(C1CCC(=O)NC1=O)C2=O (stereo partly shown) [I-72]            %               57
 6  O=C1CCC(N2Cc3cc(O[C@H]4CCC[C@@H]4NCC4CCC(F)(F)CC4)ccc3C2=O)C(=O)N1 (stereo partly shown) [I-173]            %               84
 7  CO[C@@H]1CCN(C2CCCC2Oc2ccc3c(c2)CN(C2CCC(=O)NC2=O)C3=O)C1 (single isomer, unassigned) [I-192]            %               77
 8  O=C1CCC(N2Cc3cc(O[C@H]4CCCC[C@@H]4N4CCCC4)ccc3C2=O)C(=O)N1 (stereo partly shown) [I-83]            %               86
 9  CCN(CC)[C@H]1CCC[C@@H]1Oc1ccc2c(c1)CN(C1CCC(=O)NC1=O)C2=O (stereo partly shown) [I-13]            %               85
10  CCN(CC1CC(C)(C#N)C1)C1CCCC1Oc1ccc2c(c1)CN(C1CCC(=O)NC1=O)C2=O (single isomer, unassigned) [I-164]            %               71
11  CC(C)N[C@H]1CCCC[C@@H]1Oc1ccc2c(c1)CN(C1CCC(=O)NC1=O)C2=O (stereo partly shown) [I-131]            %               91
12  O=C1CCC(N2Cc3cc(O[C@H]4CCCC[C@@H]4N4CC(Oc5ccccc5Cl)C4)ccc3C2=O)C(=O)N1 (stereo partly shown) [I-112]            %               95
13  O=C1CCC(N2Cc3cc(O[C@H]4CCCC[C@@H]4N4CC(OC5CC(F)(F)C5)C4)ccc3C2=O)C(=O)N1 (stereo partly shown) [I-56]            %               91
14  CCN(CC1CC(C)(C#N)C1)[C@H]1CCC[C@@H]1Oc1ccc2c(c1)CN(C1CCC(=O)NC1=O)C2=O (stereo partly shown) [I-163]            %               78
15  O=C1CCC(N2Cc3cc(O[C@H]4CCC[C@@H]4NCc4ccccc4)ccc3C2=O)C(=O)N1 (stereo partly shown) [I-20]            %               75
